outcomeMeasure: pIC50
Give only the number. pIC50 is defined as minus log10 of concentration in molar units.

Exercise: Can you look up pIC50 on UniProt:P04626 for N#Cc1c(NC(=O)CNc2n[nH]c3ncccc23)sc2c1CCCC2 [Compound 21a] ?
Key: 9.85

This collection of values is drawn from paper PMC7823583.
